// compounds with IC50 on UniProtKB Q13133, multi-source literature

{"COMPOUND": "O=C(O)c1ccccc1-c1cccc(C2CN(S(=O)(=O)c3ccccc3)C(=O)N2c2ccccc2)c1 (stereo not drawn)", "QUALIFYING SIGN": "=", "IC50, nM": 13000}
{"COMPOUND": "CCCS(=O)(=O)c1cc(Cl)cc(Oc2cccc(-c3ncnc4c(C(F)(F)F)cccc34)c2)c1", "QUALIFYING SIGN": ">", "IC50, nM": 1000}
{"COMPOUND": "O=S(=O)(CCCO)c1cccc(Oc2cccc(-c3c(Cc4ccccc4)nn4c(C(F)(F)F)ccnc34)c2)c1", "QUALIFYING SIGN": "=", "IC50, nM": 87.2}
{"COMPOUND": "O=C(O)c1ccc(Cn2ccc3c(-c4c(Cc5ccccc5)cnc5c(C(F)(F)F)cccc45)cccc32)cc1", "QUALIFYING SIGN": "=", "IC50, nM": 2140}
{"COMPOUND": "O=C(O)c1ccc(-c2cccc(C3CN(S(=O)(=O)c4ccccc4)C(=O)N3c3ccccc3)c2)cc1 (stereo not drawn)", "QUALIFYING SIGN": "=", "IC50, nM": 4140}
{"COMPOUND": "CS(=O)(=O)c1cccc(-c2ccc(CN(CC3CC3)S(=O)(=O)c3ccccc3C(F)(F)F)s2)c1", "QUALIFYING SIGN": "=", "IC50, nM": 845}
{"COMPOUND": "CS(=O)(=O)c1cccc(-c2cccc(-c3nc(-c4ccccc4)nc4c(C(F)(F)F)cccc34)c2)c1", "QUALIFYING SIGN": "=", "IC50, nM": 20300}
{"COMPOUND": "CCCS(=O)(=O)c1cccc(Oc2cccc(-c3ncnc4c(C(F)(F)F)cccc34)c2)c1", "QUALIFYING SIGN": "=", "IC50, nM": 4420}
{"COMPOUND": "CS(=O)(=O)c1cccc(Oc2cccc(-c3cnc4c(Cl)cccc4n3)c2)c1", "QUALIFYING SIGN": ">", "IC50, nM": 1000}
{"COMPOUND": "CC(C)c1nc2c(Cl)cccn2c1-c1cccc(Oc2cccc(S(=O)(=O)C(C)C)c2)c1", "QUALIFYING SIGN": "=", "IC50, nM": 406}
{"COMPOUND": "CC(C)S(=O)(=O)c1cccc(Oc2ccc(F)c(-c3ncnc4c(C(F)(F)F)cccc34)c2)c1", "QUALIFYING SIGN": "=", "IC50, nM": 176}
{"COMPOUND": "N#CCCCCS(=O)(=O)c1cccc(Oc2ccc(F)c(-c3ncnc4c(Cl)cccc34)c2)c1", "QUALIFYING SIGN": "=", "IC50, nM": 2030}
{"COMPOUND": "O=C(O)c1c(NCc2cccc(-c3c(Cc4ccccc4)cnc4c(C(F)(F)F)cccc34)c2)cccc1C(F)(F)F", "QUALIFYING SIGN": "=", "IC50, nM": 393}
{"COMPOUND": "O=S(=O)(CCCO)c1cccc(Oc2cccc(-c3cnc4cccc(C(F)(F)F)c4n3)c2)c1", "QUALIFYING SIGN": ">", "IC50, nM": 1000}
{"COMPOUND": "O=C(O)Cc1ccc2c(OCc3cccc(-c4c(Cc5ccccc5)cnc5c(C(F)(F)F)cccc45)c3)cccc2c1", "QUALIFYING SIGN": "=", "IC50, nM": 276}

###

// compounds with IC50 on Oxysterols receptor LXR-alpha (Homo sapiens), multi-source literature
OUTCOME MEASURE: IC50 (nM)

{"STRUCTURE NOTATION": "O=C(O)Cc1cccc2c(OCc3cccc(-c4ccnc5c(C(F)(F)F)cccc45)c3)cccc12", "TARGET DESC": "Oxysterols receptor LXR-alpha (Homo sapiens)", "QUALIFYING SIGN": "=", "RECORDED RESULT": 779}
{"STRUCTURE NOTATION": "CCc1nc2c(C(F)(F)F)cccn2c1-c1ccc(-c2ccc(S(C)(=O)=O)cc2)cc1", "TARGET DESC": "Oxysterols receptor LXR-alpha (Homo sapiens)", "QUALIFYING SIGN": ">", "RECORDED RESULT": 1000}
{"STRUCTURE NOTATION": "CCS(=O)(=O)c1cccc(Oc2cccc(-c3c(C(C)C)nc4c(Cl)cccn34)c2)c1", "TARGET DESC": "Oxysterols receptor LXR-alpha (Homo sapiens)", "QUALIFYING SIGN": "=", "RECORDED RESULT": 405}
{"STRUCTURE NOTATION": "CC(C)S(=O)(=O)N(Cc1ccc(F)cc1)Cc1cccc(-c2cccc(S(C)(=O)=O)c2)c1", "TARGET DESC": "Oxysterols receptor LXR-alpha (Homo sapiens)", "QUALIFYING SIGN": "=", "RECORDED RESULT": 2800}

###

// molecules with pIC50 on Oxysterols receptor LXR-alpha (Homo sapiens, UniProt Q13133), multi-source literature
pIC50: −log10 of the molar value.
Assign T to entries whose pIC50 meets or exceeds 6; assign F to the rest.

{"MOLECULE": "O=C(O)[C@@H]1CCCN1C(=O)c1cccc(COc2cccc(-c3c(Cc4ccccc4)cnc4c(C(F)(F)F)cccc34)c2)c1", "ANSWER LABEL": "T"}
{"MOLECULE": "CCc1nc2c(C(F)(F)F)ccnn2c1-c1cccc(Oc2cccc(S(C)(=O)=O)c2)c1", "ANSWER LABEL": "F"}
{"MOLECULE": "CS(=O)(=O)c1cccc(-c2nnc(CN(Cc3ccccc3)S(=O)(=O)c3ccccc3C(F)(F)F)o2)c1", "ANSWER LABEL": "F"}
{"MOLECULE": "N#CCCCS(=O)(=O)c1cccc(Oc2ccc(Cl)c(-c3ncnc4c(Cl)cccc34)c2)c1", "ANSWER LABEL": "F"}
{"MOLECULE": "CCc1nc2c(C#N)cccn2c1-c1cccc(Oc2cccc(S(=O)(=O)N(Cc3ccc(OC)cc3)Cc3ccc(OC)cc3)c2)c1", "ANSWER LABEL": "F"}
{"MOLECULE": "CC(C)(C)OC(=O)N1CC[C@@H](c2ccccc2)[C@H](c2cccc(-c3cncc(S(C)(=O)=O)c3)c2)C1 (relative stereo)", "ANSWER LABEL": "F"}

###

// molecules with pIC50 on Oxysterols receptor LXR-alpha (Homo sapiens), multi-source literature
pIC50: −log10 of the molar value.

{"STRUCTURE NOTATION": "CC(C)(C(=O)O)c1ccc(COc2cccc(-c3ncnc4c(C(F)(F)F)cccc34)c2)cc1", "pIC50": "< 6.00"}
{"STRUCTURE NOTATION": "Cc1nc2c(C#N)cccc2nc1-c1ccc(-c2cccc(S(C)(=O)=O)c2)cc1", "pIC50": "< 6.00"}
{"STRUCTURE NOTATION": "CC(C)c1nc2c(Cl)cccn2c1-c1cccc(Oc2ccc(S(N)(=O)=O)cc2)c1", "pIC50": "< 6.00"}

###

// molecules with IC50 on Oxysterols receptor LXR-alpha (Homo sapiens, UniProt Q13133), multi-source literature

{"MOLECULE": "Cc1ccc(C)c(-c2cccc(C3CN(S(=O)(=O)c4ccccc4)C(=O)N3C(C)C)c2)c1 (stereo not drawn)", "IC50 (nM)": 815}
{"MOLECULE": "O=C(O)CS(=O)(=O)c1cccc(Oc2ccc(Cl)c(-c3ncnc4c(C(F)(F)F)cccc34)c2)c1", "IC50 (nM)": 1010}
{"MOLECULE": "O=C(O)Cc1ccc(NCc2cncc(-c3c(Cc4ccccc4)cnc4c(C(F)(F)F)cccc34)c2)cc1", "IC50 (nM)": 1360}
{"MOLECULE": "CC(C)S(=O)(=O)c1cccc(Oc2cccc(-c3c(C(C)(C)C)nc4c(C(F)(F)F)cccn34)c2)c1", "IC50 (nM)": 160}
{"MOLECULE": "CCN(Cc1ccc(-c2cccc(S(C)(=O)=O)c2)s1)S(=O)(=O)c1ccccc1C(F)(F)F", "IC50 (nM)": 19900}
{"MOLECULE": "Cc1c(CC(=O)O)ccc(NCc2cncc(-c3c(Cc4ccccc4)cnc4c(C(F)(F)F)cccc34)c2)c1C", "IC50 (nM)": 615}
{"MOLECULE": "O=S(=O)(CCCOC1CCCCO1)c1cccc(Oc2ccc(F)c(-c3ncnc4c(Cl)cccc34)c2)c1 (stereo not drawn)", "IC50 (nM)": 265}
{"MOLECULE": "CCc1nc2c(C(F)(F)F)cccn2c1-c1cccc(Oc2cccc(S(=O)(=O)CCC(C)(C)O)c2)c1", "IC50 (nM)": 7130}
{"MOLECULE": "CC(C)S(=O)(=O)c1cccc(Oc2cccc(-n3c(C(F)(F)F)nc4c(C(F)(F)F)cccc43)c2)c1", "IC50 (nM)": 1370}
{"MOLECULE": "Cc1cc(Oc2cccc(S(C)(=O)=O)c2)ccc1-n1c(C)nc2c(C(F)(F)F)cccc21", "IC50 (nM)": 2780}
{"MOLECULE": "Cc1nc2cccc(C(F)(F)F)c2nc1-c1cc(Oc2cccc(S(=O)(=O)C(C)C)c2)ccc1Cl", "IC50 (nM)": 876}
{"MOLECULE": "Cc1nc2c(C(F)(F)F)cccc2nc1-c1cc(Oc2ccc(S(C)(=O)=O)cc2)ccc1Cl", "IC50 (nM)": 1890}
